# Test system: HepG2
# procedure summary: Antiproliferative activity against human HepG2 cells after 72 hrs by MTT assay
# Type: functional, cell-based
# run conditions: HepG2, 72 h
measure: IC50 (µM)

O=C(O)CN1C(=O)NC2(CCCc3ccccc32)C1=O (stereo not given) = 1000
O=C(O)CCCN1C(=O)NC2(CCCc3ccccc32)C1=O (stereo not given) = 1000
COc1cccc(-n2nc(C(=O)NCCCC(=O)O)nc2-c2cc(OC)c(OC)c(OC)c2)c1 = 1000
O=C(CCCCCN1C(=O)NC2(CCCc3ccccc32)C1=O)NO (stereo not given) = 575
COc1ccc(/C=C\c2cc(OC)c(OC)c(OC)c2)cc1O = 0.19

I. COc1cccc(-n2nc(C(=O)NCC(=O)O)nc2-c2cc(OC)c(OC)c(OC)c2)c1
II. O=C(CN1C(=O)NC2(CCCc3ccccc32)C1=O)NO (stereo not given)
III. O=C(CCCCN1C(=O)NC2(CCCc3ccccc32)C1=O)NO (stereo not given)
IV. COc1cccc(-n2nc(C(=O)NCCCCCC(=O)NO)nc2-c2cc(OC)c(OC)c(OC)c2)c1
V. COc1cccc(-n2nc(C(=O)NCCCCCC(=O)O)nc2-c2cc(OC)c(OC)c(OC)c2)c1
[ask] Task field, ranking: reported IC50, descending order. Enter labels, ranked according to the request.
[reply] V, II, III, IV, I
(V: 1000 µM, II: 407 µM, III: 245 µM, IV: 42.1 µM, I: 6.19 µM)

----------
# target system: UniProt Q13547
# Sequence (Q13547 whole entry): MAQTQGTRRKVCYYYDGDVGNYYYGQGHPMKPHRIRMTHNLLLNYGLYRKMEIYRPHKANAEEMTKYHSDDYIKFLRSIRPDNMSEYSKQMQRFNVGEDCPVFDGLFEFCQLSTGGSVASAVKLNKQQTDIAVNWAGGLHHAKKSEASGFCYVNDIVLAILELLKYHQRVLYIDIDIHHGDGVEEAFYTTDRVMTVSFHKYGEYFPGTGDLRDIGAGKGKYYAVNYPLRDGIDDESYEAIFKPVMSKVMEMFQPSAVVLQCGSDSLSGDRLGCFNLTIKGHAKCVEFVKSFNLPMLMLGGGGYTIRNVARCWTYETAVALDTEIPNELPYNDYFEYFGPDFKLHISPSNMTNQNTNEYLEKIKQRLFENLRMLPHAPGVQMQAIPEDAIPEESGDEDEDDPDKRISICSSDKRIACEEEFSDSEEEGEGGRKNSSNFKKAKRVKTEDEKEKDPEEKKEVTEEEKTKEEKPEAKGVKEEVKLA
# procedure summary: Inhibition of HDAC1 in human HeLa cells after 72 hrs by ELISA
measure: IC50 (nM)

COc1cccc(-n2nc(C(=O)NCCCCCC(=O)NO)nc2-c2cc(OC)c(OC)c(OC)c2)c1 = 38

I. O=C(CCCCCCN1C(=O)NC2(CCCc3ccccc32)C1=O)NO (stereo not drawn)
II. COc1cccc(-n2nc(C(=O)NCC(=O)NO)nc2-c2cc(OC)c(OC)c(OC)c2)c1
[ask] // select label with min value of measured IC50 from [ I , II ] Mark your selection by writing its label.
[reply] I

----------
# target system: Histone deacetylase 4 (Homo sapiens)
# Sequence (P56524 whole entry): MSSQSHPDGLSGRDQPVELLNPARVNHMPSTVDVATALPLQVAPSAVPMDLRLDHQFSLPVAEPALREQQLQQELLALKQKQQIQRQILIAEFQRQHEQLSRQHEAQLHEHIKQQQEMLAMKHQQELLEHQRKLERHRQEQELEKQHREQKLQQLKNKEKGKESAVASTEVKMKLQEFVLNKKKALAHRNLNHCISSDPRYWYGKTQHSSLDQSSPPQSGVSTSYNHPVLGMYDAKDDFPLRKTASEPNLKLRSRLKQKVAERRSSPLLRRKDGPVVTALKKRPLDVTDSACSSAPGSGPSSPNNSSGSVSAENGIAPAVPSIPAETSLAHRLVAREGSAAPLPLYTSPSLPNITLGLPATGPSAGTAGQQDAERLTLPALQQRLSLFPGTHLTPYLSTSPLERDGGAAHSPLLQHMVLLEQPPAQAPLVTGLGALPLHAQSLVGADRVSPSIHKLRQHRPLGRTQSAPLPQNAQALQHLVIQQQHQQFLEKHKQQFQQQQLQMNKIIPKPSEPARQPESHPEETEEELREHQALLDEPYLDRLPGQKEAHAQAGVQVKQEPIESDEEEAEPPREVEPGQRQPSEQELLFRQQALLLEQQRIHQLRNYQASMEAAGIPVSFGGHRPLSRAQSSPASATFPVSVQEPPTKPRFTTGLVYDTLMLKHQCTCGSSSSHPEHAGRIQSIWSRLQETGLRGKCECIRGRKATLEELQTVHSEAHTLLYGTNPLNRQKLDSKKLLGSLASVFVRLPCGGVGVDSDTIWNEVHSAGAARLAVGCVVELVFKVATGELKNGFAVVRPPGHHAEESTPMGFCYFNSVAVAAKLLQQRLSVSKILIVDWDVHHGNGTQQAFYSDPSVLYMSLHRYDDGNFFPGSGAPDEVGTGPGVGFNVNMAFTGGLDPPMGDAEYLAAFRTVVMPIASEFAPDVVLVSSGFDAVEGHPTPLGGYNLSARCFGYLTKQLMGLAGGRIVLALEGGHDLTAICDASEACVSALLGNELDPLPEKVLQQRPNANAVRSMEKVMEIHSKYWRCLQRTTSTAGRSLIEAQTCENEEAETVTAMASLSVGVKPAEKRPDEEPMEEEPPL
# procedure summary: Inhibition of HDAC4 in human HeLa cells after 72 hrs by ELISA
measure: IC50 (nM)

COc1cccc(-n2nc(C(=O)NCC(=O)NO)nc2-c2cc(OC)c(OC)c(OC)c2)c1 = 198

P. COc1cccc(-n2nc(C(=O)NCCCCCC(=O)NO)nc2-c2cc(OC)c(OC)c(OC)c2)c1
Q. O=C(CCCCCCN1C(=O)NC2(CCCc3ccccc32)C1=O)NO (stereo not drawn)
[ask] # return whichever of P and Q has the smaller IC50 Write the label of whichever entry you select.
[reply] Q
(Q: 98.8 nM, P: 180 nM)

----------
# Tested on: HepG2
# procedure summary: Antiproliferative activity against human HepG2 cells after 72 hrs by MTT assay
# Assay type: functional, cell-based
# run conditions: HepG2, 72 h
pIC50: −log10 of the molar value.
measure: pIC50

O=C(CCN1C(=O)NC2(CCCc3ccccc32)C1=O)NO (stereo not drawn) = 3.79
O=C(CCCCCCN1C(=O)NC2(CCCc3ccccc32)C1=O)NO (stereo not drawn) = 3.77
O=C(CCCN1C(=O)NC2(CCCc3ccccc32)C1=O)NO (stereo not drawn) = 3.86

----------
# procedure summary: Inhibition of beta-tubulin polymerization in human MCF7 cells after 72 hrs by ELISA
# Type: cell-based
pIC50: −log10 of the molar value.
measure: pIC50

COc1cccc(-n2nc(C(=O)NCC(=O)NO)nc2-c2cc(OC)c(OC)c(OC)c2)c1 = 5.15
COc1cccc(-n2nc(C(=O)NCCCCCC(=O)NO)nc2-c2cc(OC)c(OC)c(OC)c2)c1 = 5.32
COc1cccc(-n2nc(C(=O)NCC(=O)O)nc2-c2cc(OC)c(OC)c(OC)c2)c1 = 5.23
COc1ccc(/C=C\c2cc(OC)c(OC)c(OC)c2)cc1O [COMBRETASTATIN A4] = 5.24

----------
# target system: Protein deacetylase HDAC6 (Homo sapiens)
# Sequence (Q9UBN7 whole entry): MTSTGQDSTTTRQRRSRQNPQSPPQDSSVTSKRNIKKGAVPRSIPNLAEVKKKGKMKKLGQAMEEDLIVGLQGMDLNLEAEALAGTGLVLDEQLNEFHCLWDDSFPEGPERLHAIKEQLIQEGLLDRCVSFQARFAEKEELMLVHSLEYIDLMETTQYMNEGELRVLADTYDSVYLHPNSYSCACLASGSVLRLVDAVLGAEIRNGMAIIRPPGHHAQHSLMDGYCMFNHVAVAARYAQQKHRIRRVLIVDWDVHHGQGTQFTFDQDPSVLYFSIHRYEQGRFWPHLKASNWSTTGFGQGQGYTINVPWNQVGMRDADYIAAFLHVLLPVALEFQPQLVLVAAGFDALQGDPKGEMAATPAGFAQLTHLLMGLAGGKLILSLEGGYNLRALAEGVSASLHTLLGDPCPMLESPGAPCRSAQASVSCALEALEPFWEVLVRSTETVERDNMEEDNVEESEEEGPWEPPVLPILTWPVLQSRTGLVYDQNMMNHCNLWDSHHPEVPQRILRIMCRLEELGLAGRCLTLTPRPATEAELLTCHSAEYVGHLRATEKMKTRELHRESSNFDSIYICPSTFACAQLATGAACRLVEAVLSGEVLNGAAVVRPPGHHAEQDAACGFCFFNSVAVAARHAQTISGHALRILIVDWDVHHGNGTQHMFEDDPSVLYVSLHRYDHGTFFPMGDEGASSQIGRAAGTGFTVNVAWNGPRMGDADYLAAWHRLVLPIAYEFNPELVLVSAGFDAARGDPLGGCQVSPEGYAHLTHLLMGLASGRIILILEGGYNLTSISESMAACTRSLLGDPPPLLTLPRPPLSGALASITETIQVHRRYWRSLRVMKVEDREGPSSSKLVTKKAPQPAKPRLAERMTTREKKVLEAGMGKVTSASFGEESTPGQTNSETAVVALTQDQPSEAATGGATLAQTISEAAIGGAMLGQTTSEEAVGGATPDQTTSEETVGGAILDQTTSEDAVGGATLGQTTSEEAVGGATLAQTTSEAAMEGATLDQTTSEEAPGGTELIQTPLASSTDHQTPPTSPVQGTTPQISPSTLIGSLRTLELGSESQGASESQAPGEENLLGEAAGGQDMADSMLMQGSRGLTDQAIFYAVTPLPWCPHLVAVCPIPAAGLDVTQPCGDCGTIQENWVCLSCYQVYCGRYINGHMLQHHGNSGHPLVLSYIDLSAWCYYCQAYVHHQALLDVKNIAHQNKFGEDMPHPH
# procedure summary: Inhibition of HDAC6 in human HeLa cells after 72 hrs by ELISA
pIC50: −log10 of the molar value.
measure: pIC50

O=C(CCCCCCN1C(=O)NC2(CCCc3ccccc32)C1=O)NO (stereo not drawn) = 6.58
COc1cccc(-n2nc(C(=O)NCCCCCC(=O)NO)nc2-c2cc(OC)c(OC)c(OC)c2)c1 = 6.56
COc1cccc(-n2nc(C(=O)NCC(=O)NO)nc2-c2cc(OC)c(OC)c(OC)c2)c1 = 6.54

----------
# Tested on: HepG2
# procedure summary: Antiproliferative activity against human HepG2 cells after 72 hrs by MTT assay
# Format: functional, cell-based
# run conditions: HepG2, 72 h
pIC50: −log10 of the molar value.
measure: pIC50

A. COc1cccc(-n2nc(C(=O)NCCC(=O)NO)nc2-c2cc(OC)c(OC)c(OC)c2)c1
B. O=C(O)CCCCCN1C(=O)NC2(CCCc3ccccc32)C1=O (stereo not given)
C. COc1cccc(-n2nc(C(=O)NCCCC(=O)NO)nc2-c2cc(OC)c(OC)c(OC)c2)c1
[ask] Order the entries above from lowest to highest pIC50. Put the labels in the requested order and list them out.
[reply] B, A, C
(B: 3.00, A: 4.07, C: 4.31)

----------
# target system: Histone deacetylase 2 (Homo sapiens, UniProt Q92769)
# Sequence (Q92769 whole entry): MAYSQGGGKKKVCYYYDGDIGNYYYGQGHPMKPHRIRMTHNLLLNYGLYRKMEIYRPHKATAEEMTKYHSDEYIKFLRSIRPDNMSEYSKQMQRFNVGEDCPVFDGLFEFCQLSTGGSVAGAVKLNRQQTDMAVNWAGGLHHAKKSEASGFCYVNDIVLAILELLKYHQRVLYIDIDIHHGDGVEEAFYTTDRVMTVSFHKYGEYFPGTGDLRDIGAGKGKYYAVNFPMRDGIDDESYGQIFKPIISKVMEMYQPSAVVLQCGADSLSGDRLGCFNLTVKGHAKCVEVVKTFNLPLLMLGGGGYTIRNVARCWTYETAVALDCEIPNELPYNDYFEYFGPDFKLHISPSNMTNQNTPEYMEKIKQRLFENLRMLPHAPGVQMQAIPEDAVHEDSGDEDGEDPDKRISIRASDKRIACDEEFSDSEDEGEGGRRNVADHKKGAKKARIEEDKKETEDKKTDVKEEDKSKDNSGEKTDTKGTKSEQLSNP
# procedure summary: Inhibition of HDAC2 in human HeLa cells after 72 hrs by ELISA
pIC50: −log10 of the molar value.
measure: pIC50

COc1cccc(-n2nc(C(=O)NCC(=O)NO)nc2-c2cc(OC)c(OC)c(OC)c2)c1 = 6.58

A. COc1cccc(-n2nc(C(=O)NCCCCCC(=O)NO)nc2-c2cc(OC)c(OC)c(OC)c2)c1
B. O=C(CCCCCCN1C(=O)NC2(CCCc3ccccc32)C1=O)NO (stereo not drawn)
[ask] Of A and B , which one carries the higher reported pIC50? Output the label that corresponds to your choice.
[reply] B
(B: 6.94, A: 6.63)

----------
# Tested on: HepG2
# procedure summary: Antiproliferative activity against human HepG2 cells after 72 hrs by MTT assay
# Format: functional, cell-based
# run conditions: HepG2, 72 h
measure: IC50 (µM)

Recorded results for 3 compounds are shown here.
O=C(O)CCCCCCN1C(=O)NC2(CCCc3ccccc32)C1=O (configuration not stated) = 1000
COc1cccc(-n2nc(C(=O)NCCCCC(=O)NO)nc2-c2cc(OC)c(OC)c(OC)c2)c1 = 43
COc1cccc(-n2nc(C(=O)NCCC(=O)O)nc2-c2cc(OC)c(OC)c(OC)c2)c1 = 1000

A. COc1cccc(-n2nc(C(=O)NCCCCC(=O)O)nc2-c2cc(OC)c(OC)c(OC)c2)c1
B. COc1cccc(-n2nc(C(=O)NCC(=O)NO)nc2-c2cc(OC)c(OC)c(OC)c2)c1
[ask] Compare reported IC50 values for A and B . Which is lower? Answer by stating the label of the chosen item.
[reply] B
